Taken from ChEMBL document CHEMBL1142251.

Listed here: items and their measured pIC50.
Target: Sortase A (Staphylococcus aureus)
Sequence (Q9S446 whole entry): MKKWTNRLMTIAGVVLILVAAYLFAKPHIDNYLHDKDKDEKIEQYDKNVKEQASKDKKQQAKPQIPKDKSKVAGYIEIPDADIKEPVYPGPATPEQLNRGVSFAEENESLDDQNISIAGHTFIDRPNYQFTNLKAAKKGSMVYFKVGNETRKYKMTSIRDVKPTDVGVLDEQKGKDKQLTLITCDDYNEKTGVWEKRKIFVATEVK
Note on units: pIC50 is unitless, being -log10 of a concentration expressed in mol/L.

{"compound": "CS(=O)(=NC=C(C#N)C(=O)c1cccs1)c1ccc(Oc2ccc([N+](=O)[O-])cn2)cc1 (stereo not given)", "reported value": 3.40}
{"compound": "O=Cc1cc(NC(=O)/C=C/c2ccco2)ccc1N1CCOCC1", "reported value": 3.97}
{"compound": "O=C(/C=C/c1cccs1)Nc1ccc(N2CCOCC2)c(C(=O)O)c1", "reported value": 4.12}
{"compound": "COC(=O)c1cc(NC(=O)/C=C/c2cccs2)ccc1N1CCOCC1", "reported value": 4.15}

Query pIC50 on Sortase A (Staphylococcus aureus) for O=Cc1cc(NC(=O)/C=C/c2cccs2)ccc1N1CCOCC1
4.11

And the next one, N=C(N)N/N=C/c1ccc(/C=N/NC(=N)N)cc1 ?
3.56

And the next one, CS(=O)(=NC=C(C#N)C(=O)c1ccco1)c1ccc(Oc2ccc([N+](=O)[O-])cn2)cc1 (stereo not given) ?
3.82

And the next one, NC(=O)c1cc(NC(=O)/C=C/c2cccs2)ccc1N1CCOCC1 ?
3.98

====

Data export: IC50 values recorded with UniProt Q9S446.
Give your result in µM as a bare value.

Data request, read-out IC50, for Nc1nccc(-c2ccc(NC(=O)Nc3ccc(Cl)cc3)cc2)n1
400

And the next one, COC(=O)c1cc(NC(=O)/C=C/c2ccco2)ccc1N1CCOCC1 ?
58

And the next one, Cc1ccc(S(=O)(=O)NC(=O)Nc2ccc(NC(=O)c3ccccc3O)cc2)cc1 ?
226

And the next one, N#Cc1c(SCC(=O)c2ccc([N+](=O)[O-])cc2)[n-][s+]c1SCC(=O)c1ccc([N+](=O)[O-])cc1 ?
97.3

And the next one, O=C(/C=C/c1ccco1)Nc1ccc(N2CCOCC2)c(CO)c1 ?
111

And the next one, O=C(/C=C/c1cccs1)Nc1ccc(N2CCOCC2)c(CO)c1 ?
73

And the next one, O=C(/C=C/c1ccco1)Nc1ccc(N2CCOCC2)c(C(=O)O)c1 ?
181

And the next one, O=C(O)/C=C/C(=O)Nc1ccc(NC(=O)c2ccccc2O)cc1 ?
125
